- ASSAY_INFO: qHTS of pediatric cancer cell lines to identify multiple opportunities for drug repurposing: Confirmatory screen for SK-N-SH cells (AID 1347129);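 note: cells exposed to compound for 48 h before viability read; nearly all actives have a fitted effect of over 60% in size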; note: potency is the fitted concentration of half-maximal effect
- RUN_PARAMETERS: SK-N-SH neuroblastoma cell viability; series mostly up to 46.1 µM
Records with an inconclusive call do not appear. Active and inactive are the calls of the source. Calls come from the whole dose curve; as a rule, active = well fitted cell-killing curve with a large enough effect; inconclusive = small, poorly fitted or top-dose-only effect; inactive = flat fitted curve, though single readings scatter.
ATTRIBUTE_MEASURED: Potency

# annotated cases, reported Potency shown
COMPOUND	Potency
Cc1nc2cnc3ccc(C#Cc4cccnc4)cc3c2n1-c1ccc(C(C)(C)C#N)cc1	2150 nM (active)
COC(=O)[C@]12CCC(C)(C)C[C@@H]1[C@@H]1C(=O)C=C3[C@@]4(C)C=C(C#N)C(=O)C(C)(C)[C@@H]4CC[C@@]3(C)[C@]1(C)CC2	2090 nM (active)
Cc1c(C)n(Cc2ccc(-c3ccccc3C(=O)O)cc2)c2ccc(C(=O)N[C@@H](C)c3ccc([N+](=O)[O-])cc3)cc12	inactive
CN1CCN(c2cc(C(=O)Nc3ccc4c(c3)-c3c(c(C(N)=O)nn3-c3ccc(F)cc3)CC4)c(Cl)cn2)CC1	20900 nM (active)
CCCCc1nc2cc(C=CC(=O)NO)ccc2n1CCN(CC)CC	3320 nM (active)
COc1ccc(-c2cc3c(C)nc(N)nc3n(C3CCC(OCCO)CC3)c2=O)cn1 (configuration not stated)	inactive

Then there is this compound:
Summary for this compound, COc1cc(=C2C=c3ccccc3=N2)[nH]c1=Cc1[nH]c(C)cc1C : Potency is 1240 nM (active)

###

- ASSAY_INFO: Quantitative High-Throughput drug screen in 47 multiple myeloma cell lines against the NCATS MIPE library collection: ARD_JJKsccE7 cell viability assay (AID 1918929;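 for viability: 100% = DMSO-only wells and 0% = media-only wells without cells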)
- RUN_PARAMETERS: ARD myeloma cell line viability, CellTiter-Glo, 48 h; series mostly up to 45.8 µM
Records with an inconclusive call do not appear. Activity calls are given as the source filed them. The call rests on the fitted dose curve; in most records, active means well fitted cell-killing curve with a large enough effect; inconclusive means small, poorly fitted or top-dose-only effect, or effect the other way; inactive means no such curve, though single readings can be large or run the other way.
Valid outcomes are listed here; reply with one: 1.0 = active, 0.0 = inactive

Would you please look over these solved cases?
MOLECULE	CATEGORY_LABEL
O=c1c2ccccc2nc2n1CCc1c-2[nH]c2ccccc12	0.0
CNC(=O)c1ccc(N2C(=S)N(c3cnc(C#N)c(C(F)(F)F)c3)C(=O)C23CCC3)cc1F	1.0
CC1=C(CO)C(=O)O[C@@H]([C@@H](C)[C@H]2CC[C@H]3[C@@H]4C[C@H]5O[C@]56[C@@H](O)C=CC(=O)[C@]6(C)[C@@H]4CC[C@]23C)C1	0.0
CN(C)CC=CC(=O)Nc1cc2c(Nc3ccc(F)c(Cl)c3)ncnc2cc1O[C@H]1CCOC1	1.0
C=C1C(=CC=C2CCCC3(C)[C@@H]([C@H](C)C=CC=CC(O)(CC)CC)CC[C@@H]23)C[C@@H](O)C[C@@H]1O (some centres not stated)	1.0
CC[C@@H]1C(=O)N(C)c2cnc(Nc3ccc(C(=O)NC4CCN(C)CC4)cc3OC)nc2N1C1CCCC1	1.0

For the next question, use this molecule.
What did the test return for CC(C)c1ccc(Cn2ccc3c4c(N)nc(NC5CC5)nc4ccc32)cc1 ?
1.0

###

- ASSAY_INFO: Quantitative High-Throughput drug screen in 47 multiple myeloma cell lines against the NCATS MIPE library collection: MOLP8_DSMZ cell viability assay (AID 1918977); note: potency is the fitted concentration of half-maximal effect; nearly all actives have a fitted effect of over 45% in size
- RUN_PARAMETERS: MOLP8 myeloma viability, CellTiter-Glo ATP luminescence, 48 h; series mostly up to 45.8 µM
Results filed as inconclusive are left out. The source made the active and inactive calls. Calls follow the shape of the dose curve; as a rule, active = well fitted cell-killing curve with a large enough effect; inconclusive = small, poorly fitted or top-dose-only effect, or effect the other way; inactive = no such curve, though single readings can be large or run the other way.
ATTRIBUTE_MEASURED: Potency

# annotated cases, reported Potency shown
SMILES_TEXT	ATTRIBUTE_MEASURED	RESULT
O=C(Cc1ccc(-c2ccc(OCCN3CCOCC3)cc2)cn1)NCc1ccccc1	Potency	0.0833 µM (active)
O=C(Nc1cc(C(F)(F)F)cc(C(F)(F)F)c1)c1cc(Cl)ccc1O	Potency	1.48 µM (active)
Cn1c2ccccc2c2c3c(c4c5ccccc5n(CCC#N)c4c21)CNC3=O	Potency	10.5 µM (active)
CN1CCC(CNc2ccc3ncc(-c4cccc(OC(F)(F)F)c4)n3n2)CC1	Potency	18.7 µM (active)
O=C(C=Cc1cccc(S(=O)(=O)Nc2ccccc2)c1)NO	Potency	2.41 µM (active)
c1nc2nc(Nc3ccc(N4CCOCC4)cc3)nc(NC3CCCCC3)c2[nH]1	Potency	8.33 µM (active)

Summary for this compound, COc1ccc(OC)c(-c2nnc3ccc(-c4ccc(OC)c(O[C@@H]5CCOC5)c4)nn23)c1 : Potency is 9.35 µM (active)

###

- ASSAY_INFO: Quantitative High-Throughput drug screen in 47 multiple myeloma cell lines against the NCATS MIPE library collection: INA6_PLB cell viability assay (AID 1918965; note: potency is the fitted concentration of half-maximal effect; nearly all actives have a fitted effect of over 55% in size)
- RUN_PARAMETERS: INA6 myeloma viability, CellTiter-Glo ATP luminescence, 48 h; series mostly up to 45.8 µM
Results filed as inconclusive are left out. Activity calls are given as the source filed them. Calls come from the whole dose curve; as a rule, active = well fitted cell-killing curve with a large enough effect; inconclusive = small, poorly fitted or top-dose-only effect, or effect the other way; inactive = no such curve, though single readings can be large or run the other way.
ATTRIBUTE_MEASURED: Potency

# annotated cases, reported Potency shown
SMILES_TEXT	Potency
C=CC(=O)Nc1cc2c(Nc3ccc(F)c(Cl)c3)ncnc2cc1OCCCN1CCOCC1	833 nM (active)
Cc1cnc(Nc2ccc(F)cc2Cl)nc1-c1c[nH]c(C(=O)N[C@H](CO)c2cccc(Cl)c2)c1	9350 nM (active)

Then there is this compound:
Summary for this compound, Nc1ccccc1NC(=O)c1ccc(CNc2nccc(-c3cccnc3)n2)cc1 : Potency is 296 nM (active)

###

- ASSAY_INFO: Quantitative High-Throughput drug screen in 47 multiple myeloma cell lines against the NCATS MIPE library collection: OPM2_DSMZ cell viability assay (AID 1919872); note: nearly all actives have a fitted effect of over 30% in size; note: potency is the fitted concentration of half-maximal effect
- RUN_PARAMETERS: OPM2 myeloma viability, CellTiter-Glo ATP luminescence, 48 h; series mostly up to 45.8 µM
- From the text: PI: Beverly A. Mock Ph.D. Laboratory of Cancer Biology and Genetics, Center for Cancer Research, National Cancer Institute, National Institute of Health, Bethesda, Maryland […] 5; Detector; 425V; Luminescence; Viewlux PerkinElmer. […] 1. […] Briefly, the corresponding myeloma cell lines were screened in 1,536-well plates with 500 cells, 5-uL per well for inhibition of cell viability (assessed by measuring ATP levels with CellTiterGlo). […]
Results filed as inconclusive are left out. The source made the active and inactive calls. Calls come from the whole dose curve; as a rule, active = well fitted cell-killing curve with a large enough effect; inconclusive = small, poorly fitted or top-dose-only effect, or effect the other way; inactive = no such curve, though single readings can be large or run the other way.
ATTRIBUTE_MEASURED: Potency

COMPOUND	ATTRIBUTE_MEASURED	RESULT
CC(C)(C)OC(=O)Nc1ccc(-c2cc(C(=O)NCCCCCCC(=O)NO)no2)cc1	Potency	2640 nM (active)
NC(=O)Nc1cc(-c2cccc(F)c2)sc1C(=O)N[C@H]1CCCNC1	Potency	2640 nM (active)
C=CCn1c(=O)c2cnc(Nc3ccc(N4CCN(C)CC4)cc3)nc2n1-c1cccc(C(C)(C)O)n1	Potency	1180 nM (active)
COc1ccc(-c2cc3c(C)nc(N)nc3n(C3CCC(OCCO)CC3)c2=O)cn1 (stereo not drawn)	Potency	66.2 nM (active)
CNC(=O)c1nn(C)c2c1C(C)(C)Cc1cnc(Nc3ccc(N4CCN(C)CC4)cc3)nc1-2	Potency	13200 nM (active)

Summary for this compound, CN(C1CCc2c(c3ccccc3n2CC(=O)O)C1)S(=O)(=O)c1ccc(F)cc1 (stereo not drawn) : Potency is inactive

Summary for this compound, CNC(=O)c1ccccc1Nc1nc(Nc2ccc(N3CCOCC3)cc2OC)ncc1Cl : Potency is 4180 nM (active)

Summary for this compound, Cn1c(CNc2ccc(C(=N)N)cc2)nc2cc(C(=O)N(CCC(=O)O)c3ccccn3)ccc21 : Potency is inactive

###

- System: WaGa
- ASSAY_INFO: qHTS assay to identify novel small-molecules to repurpose for Merkel cell carcinoma treatment (AID 1296009); note: nearly all actives have a fitted effect of over 60% in size; note: potency is the fitted concentration of half-maximal effect
- RUN_PARAMETERS: MCC and control cell lines, CellTiter-Glo viability, 72 h; series mostly up to 46 µM
- Description: MCC is a rare and aggressive neuroendocrine skin cancer with limited treatment options. Approximately 80% of MCCs have the Merkel cell polyomavirus (MCPyV) DNA integrated into the host genome (virus-positive: VP-MCC) and viral oncogenes drive oncogenesis. The remaining MCCs are virus-negative (VN-MCC) and are caused by UV mutagenesis. […] Using cell viability as a readout (CellTiter-Glo assay) we found both overlapping and distinct drugs that can be repurposed for the treatment of VP-MCC and VN-MCC. […]
Records with an inconclusive call do not appear. The source made the active and inactive calls. Calls follow the shape of the dose curve; as a rule, active = well fitted inhibition curve with a large enough effect; inconclusive = small, poorly fitted or top-dose-only effect; inactive = flat fitted curve, though single readings scatter.

COMPOUND	TARGET_ENTITY	Potency
CC(C)(O)CCc1ccc(OCc2cc(-c3cccc(OC(F)F)c3)c3ncccc3c2)cc1	WaGa	inactive
CCCCOc1c(C(=O)c2c(F)cc(C)cc2F)cnc2n[nH]cc12	WaGa	inactive
COc1ccc(-c2cc3c(C)nc(N)nc3n(C3CCC(OCCO)CC3)c2=O)cn1 (stereo not drawn)	WaGa	2090 nM (active)

###

- ASSAY_INFO: Quantitative High-Throughput drug screen in 47 multiple myeloma cell lines against the NCATS MIPE library collection: XG6_PLB cell viability assay (AID 1919865); note: nearly all actives have a fitted effect of over 40% in size
- RUN_PARAMETERS: XG6 myeloma viability, CellTiter-Glo ATP luminescence, 48 h; series mostly up to 45.8 µM
Records with an inconclusive call do not appear. Calls of active or inactive are those of the source. Calls follow the shape of the dose curve; as a rule, active = well fitted cell-killing curve with a large enough effect; inconclusive = small, poorly fitted or top-dose-only effect, or effect the other way; inactive = no such curve, though single readings can be large or run the other way.
Valid outcomes are listed here; reply with one: active, inactive

COMPOUND	CATEGORY_LABEL
Cc1nc2ccc(CN(C)c3ccc(C(=O)N[C@@H](CCC(=O)O)C(=O)O)s3)cc2c(=O)[nH]1	inactive
O=C(c1cncc(Br)c1)N1CCC(N2CCCC2)CC1	inactive
Clc1cccc(-c2nnnn2Cc2cccnc2)c1Cl	active

What did the test return for COc1cc2c(NC3CCN(C(C)C)CC3)nc(C3CCCCC3)nc2cc1OCCCN1CCCC1 ?
active

What did the test return for COc1ccc(C=Cc2cc(OC)c(OC)c(OC)c2)cc1O ?
inactive

What did the test return for CC1(O)CC(c2nc(-c3ccc4ccc(-c5ccccc5)nc4c3)c3c(N)nccn23)C1 (centres undefined) ?
active

What did the test return for CC[C@H]1CN2CCc3cc(OC)c(OC)cc3[C@H]2C[C@@H]1C[C@@H]1NCCc2cc(OC)c(OC)cc21 ?
active

What did the test return for CC1(C)OC2=C(C(=O)c3ccccc3C2=O)[C@H](NCc2ccccc2)[C@H]1O ?
active

What did the test return for CCn1cc(-c2ccnc3[nH]c(-c4cccc(CN(C)C)c4)cc23)c(-c2ccc(NC(=O)N(C)C)cc2)n1 ?
active

What did the test return for CC(C)c1ccccc1Cc1cc(C(=O)Nc2ccc(S(=O)(=O)c3ccccc3C(C)(C)C)cc2)c(O)c(O)c1O ?
active

What did the test return for O=C(NCCCNc1nc(Nc2cccc(NC(=O)N3CCCC3)c2)ncc1I)c1cccs1 ?
active

What did the test return for Nc1cc(C(F)(F)F)c(-c2cc(N3CCOCC3)nc(N3CCOCC3)n2)cn1 ?
active

What did the test return for Cn1cc(-c2[nH]c3cc(NC(=O)[C@H](N)C4CCCCC4)cc4c3c2C=NNC4=O)cn1 ?
active

What did the test return for NC1(Cc2ccc(Cl)cc2)CCN(c2ncnc3[nH]ccc23)CC1 ?
active

What did the test return for Clc1ccc2ncc(-c3cccc(NC4CNC4)n3)n2c1 ?
active

What did the test return for CCC(=C(c1ccccc1)c1ccc(OCCN(C)C)cc1)c1ccccc1 ?
active

What did the test return for C1=CCOCc2cc(ccc2OCCN2CCCC2)Nc2nccc(n2)-c2cccc(c2)OCC1 ?
active

What did the test return for CNC(=O)c1cc(Oc2ccc(NC(=O)Nc3cc(C(C)(C)C)nn3-c3ccc4ncccc4c3)c(F)c2)ccn1 ?
active
